This collection of values is drawn from ChEMBL document CHEMBL1157080.

- TARGET: cGMP-specific 3',5'-cyclic phosphodiesterase (Homo sapiens, UniProt O76074)
- MEASUREMENT PROTOCOL: Inhibition of human recombinant PDE5 at 100 uM after 1.5 hrs by fluorescent polarization assay

{"MOL": "CCCCN1CC(=O)N2[C@@H](c3ccccc3Br)c3[nH]c4ccccc4c3C[C@@H]2C1=O", "Inhibition [%]": 66.7}
{"MOL": "O=C1[C@@H]2Cc3c([nH]c4ccccc34)[C@@H](c3ccccc3Br)N2C(=O)CN1Cc1ccccc1", "Inhibition [%]": 100}
{"MOL": "O=C1[C@H]2Cc3c([nH]c4ccccc34)[C@H](c3ccccc3Br)N2C(=O)CN1Cc1ccccc1", "Inhibition [%]": 69.4}
{"MOL": "CN1CC(=O)N2[C@H](c3ccc4c(c3)OCO4)c3[nH]c4ccccc4c3C[C@@H]2C1=O", "Inhibition [%]": 100}
{"MOL": "COC(=O)[C@@H]1Cc2c([nH]c3ccccc23)[C@@H](c2ccccc2Br)N1C(=O)CCl", "Inhibition [%]": 47.9}
{"MOL": "COC(=O)[C@@H]1Cc2c([nH]c3ccccc23)[C@H](c2ccccc2Br)N1C(=O)CCl", "Inhibition [%]": 35.8}
{"MOL": "CN1CC(=O)N2[C@@H](c3ccccc3Br)c3[nH]c4ccccc4c3C[C@H]2C1=O", "Inhibition [%]": 92.7}
{"MOL": "O=C1[C@@H]2Cc3c([nH]c4ccccc34)[C@H](c3ccccc3Br)N2C(=O)CN1Cc1ccccc1", "Inhibition [%]": 48.7}
{"MOL": "CCN1CC(=O)N2[C@H](c3ccccc3Br)c3[nH]c4ccccc4c3C[C@@H]2C1=O", "Inhibition [%]": 97}
{"MOL": "COC(=O)[C@@H]1Cc2c([nH]c3ccccc23)[C@H](c2ccccc2Br)N1", "Inhibition [%]": 46}
{"MOL": "CCCCN1CC(=O)N2[C@H](c3ccccc3Br)c3[nH]c4ccccc4c3C[C@H]2C1=O", "Inhibition [%]": 93.8}
{"MOL": "COC(=O)[C@H]1Cc2c([nH]c3ccccc23)[C@@H](c2ccccc2Br)N1C(=O)CCl", "Inhibition [%]": 86}
{"MOL": "CCN1C(=O)[C@@H]2Cc3c([nH]c4ccccc34)[C@H](c3ccccc3Br)N2C1=O", "Inhibition [%]": 89.5}

---

- TARGET: cGMP-specific 3',5'-cyclic phosphodiesterase (Homo sapiens, UniProt O76074)
- MEASUREMENT PROTOCOL: Inhibition of human recombinant PDE5 after 1.5 hrs by fluorescent polarization assay
OBSERVABLE: IC50

{"MOL": "CCN1C(=O)[C@@H]2Cc3c([nH]c4ccccc34)[C@@H](c3ccccc3Br)N2C1=S", "OBSERVABLE": "IC50", "REPORTED VALUE": "6.1 µM"}
{"MOL": "CCN1C(=O)[C@@H]2Cc3c([nH]c4ccccc34)[C@@H](c3ccccc3Br)N2C1=O", "OBSERVABLE": "IC50", "REPORTED VALUE": "0.038 µM"}
{"MOL": "CN1CC(=O)N2[C@@H](c3ccccc3Br)c3[nH]c4ccccc4c3C[C@H]2C1=O", "OBSERVABLE": "IC50", "REPORTED VALUE": "2.8 µM"}
{"MOL": "CCN1C(=O)[C@H]2Cc3c([nH]c4ccccc34)[C@H](c3ccccc3Br)N2C1=S", "OBSERVABLE": "IC50", "REPORTED VALUE": "74 µM"}
